Items are presented alongside their recorded IC50.
Biological target: Glucocorticoid receptor (Homo sapiens, UniProt P04150)
Assay: Agonist activity at glucocorticoid receptor in HFF assessed as inhibition of IL-1-induced IL-6 production after 24 hrs

Previously resolved entries follow.
| compound | IC50 |
| --- | --- |
| Cc1cc(C)c(S(=O)(=O)NC(Cc2c[nH]c3cc(C#N)ccc23)C(F)(F)F)c(C)c1 (stereo not given) | > 10 µM |
| Cc1cc(C)c(S(=O)(=O)NC(CSc2ccccc2)C(F)(F)F)c(C)c1 (stereo not given) | > 10 µM |
| Cc1cc(C)c(S(=O)(=O)NC(Cn2cc(C#N)c3ccccc32)C(F)(F)F)c(C)c1 (stereo not given) | > 2 µM |

What the record says about Cc1cc(C)c(S(=O)(=O)NC(COc2ccccc2)C(F)(F)F)c(C)c1 (stereo not given) : IC50 is > 10 µM

What the record says about Cc1cc(C)c(S(=O)(=O)NC(Cn2ccc3c(C#N)cccc32)C(F)(F)F)c(C)c1 (stereo not given) : IC50 is > 10 µM

---

Biological target: Glucocorticoid receptor (Homo sapiens, UniProt P04150)
Test: Displacement of TAMRA-labeled dexamethasone from glucocorticoid receptor (unknown origin) by fluorescence polarization competitive binding assay
pIC50: −log10 of the molar value.
quantity kind: pIC50

Previously resolved entries follow.
| molecule | quantitative readout |
| --- | --- |
| Cc1cc(C)c(S(=O)(=O)NC(Cc2c[nH]c3cccc(C)c23)C(F)(F)F)c(C)c1 (stereo unspecified) | 7.74 |
| Cc1cc(C)c(S(=O)(=O)NC(Cc2c[nH]c3c(C#N)cc(C)cc23)C(F)(F)F)c(C)c1 (stereo unspecified) | 8.30 |

I = Nc1cc(Cl)cc(Cl)c1S(=O)(=O)NC(Cc1c[nH]c2ccccc12)C(F)(F)F (stereo unspecified)
II = Cc1cc(C)c(S(=O)(=O)NC(COc2ccccc2)C(F)(F)F)c(C)c1 (stereo unspecified)
Ask | Between these two entries, I and II , state which has the higher pIC50. Return value: the label identifying the chosen record.
Reply | I
(I: 8.00, II: 6.68)

a = CC[C@@H](Cn1cc(C#N)c2ccccc21)NS(=O)(=O)c1c(N)cc(Cl)cc1Cl
b = Cc1cc(C)c(S(=O)(=O)NC(Cc2c[nH]c3c(C#N)cccc23)C(F)(F)F)c(C)c1 (stereo unspecified)
Ask | Between these two entries, a and b , state which has the higher pIC50. Return value: the label identifying the chosen record.
Reply | a

---

Target: Glucocorticoid receptor (Homo sapiens, UniProt P04150)
Sequence (P04150 whole entry): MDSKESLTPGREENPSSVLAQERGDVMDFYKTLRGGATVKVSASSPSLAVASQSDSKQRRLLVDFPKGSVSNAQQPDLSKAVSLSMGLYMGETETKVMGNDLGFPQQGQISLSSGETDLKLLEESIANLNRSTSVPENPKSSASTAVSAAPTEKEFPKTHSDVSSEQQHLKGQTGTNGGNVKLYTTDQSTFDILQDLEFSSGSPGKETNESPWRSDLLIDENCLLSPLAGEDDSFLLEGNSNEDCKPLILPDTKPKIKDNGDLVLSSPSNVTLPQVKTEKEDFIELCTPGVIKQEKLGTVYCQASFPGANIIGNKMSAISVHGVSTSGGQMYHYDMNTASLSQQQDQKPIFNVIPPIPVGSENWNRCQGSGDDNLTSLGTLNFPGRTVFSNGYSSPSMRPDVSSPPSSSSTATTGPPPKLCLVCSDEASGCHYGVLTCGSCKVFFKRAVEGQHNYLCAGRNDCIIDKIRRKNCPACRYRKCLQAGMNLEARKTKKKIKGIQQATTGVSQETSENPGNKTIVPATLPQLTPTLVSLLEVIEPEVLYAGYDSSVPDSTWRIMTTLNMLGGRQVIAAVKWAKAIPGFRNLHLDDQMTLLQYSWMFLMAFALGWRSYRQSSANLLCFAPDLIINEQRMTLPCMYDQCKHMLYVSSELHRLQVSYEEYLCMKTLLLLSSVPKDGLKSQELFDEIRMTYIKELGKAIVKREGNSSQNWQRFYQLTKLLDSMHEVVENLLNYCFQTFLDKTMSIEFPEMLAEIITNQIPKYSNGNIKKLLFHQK
Assay: Displacement of TAMRA-labeled dexamethasone from glucocorticoid receptor (unknown origin) by fluorescence polarization competitive binding assay
quantity kind: IC50 (nM)

Previously resolved entries follow.
| molecule | quantity kind | measurement unit | quantitative readout |
| --- | --- | --- | --- |
| Cc1cc(C)c(S(=O)(=O)NC(Cc2c[nH]c3cc(C#N)ccc23)C(F)(F)F)c(C)c1 (centres undefined) | IC50 | nM | 280 |
| Cc1cc(C)c(S(=O)(=O)NC(Cc2c[nH]c3ccccc23)C(F)(F)F)c(C)c1 (centres undefined) | IC50 | nM | 15 |
| Cc1cc(C)c(S(=O)(=O)NC(Cn2cc(C#N)c3ccccc32)C(F)(F)F)c(C)c1 (centres undefined) | IC50 | nM | 15 |
| Cc1cc(C)c(S(=O)(=O)NC(Cc2c[nH]c3ccc(C#N)cc23)C(F)(F)F)c(C)c1 (centres undefined) | IC50 | nM | 320 |

A = Cc1cc(C)c(S(=O)(=O)NC(Cn2ccc3ncccc32)C(F)(F)F)c(C)c1 (centres undefined)
B = O=S(=O)(NC(Cc1c[nH]c2ccccc12)C(F)(F)F)c1c(Cl)cc(Cl)cc1Cl (centres undefined)
C = Cc1cc(C)c(S(=O)(=O)NC(Cn2ccc3c(C#N)cccc32)C(F)(F)F)c(C)c1 (centres undefined)
D = CC(C)(Cc1c[nH]c2ccccc12)NS(=O)(=O)c1c(N)cc(Cl)cc1Cl
E = Cc1cc(C)c(S(=O)(=O)NC(Cc2c[nH]c3ccc(C)cc23)C(F)(F)F)c(C)c1 (centres undefined)
Ask | Would you mind ranking these molecules by ascending IC50? To answer, arrange all of the labels according to the requested order.
Reply | E, D, B, C, A
(E: 10 nM, D: 15 nM, B: 35 nM, C: 60 nM, A: 340 nM)

---

Target: Cytochrome P450 3A4 (Homo sapiens, UniProt P08684)
Sequence (P08684 whole entry): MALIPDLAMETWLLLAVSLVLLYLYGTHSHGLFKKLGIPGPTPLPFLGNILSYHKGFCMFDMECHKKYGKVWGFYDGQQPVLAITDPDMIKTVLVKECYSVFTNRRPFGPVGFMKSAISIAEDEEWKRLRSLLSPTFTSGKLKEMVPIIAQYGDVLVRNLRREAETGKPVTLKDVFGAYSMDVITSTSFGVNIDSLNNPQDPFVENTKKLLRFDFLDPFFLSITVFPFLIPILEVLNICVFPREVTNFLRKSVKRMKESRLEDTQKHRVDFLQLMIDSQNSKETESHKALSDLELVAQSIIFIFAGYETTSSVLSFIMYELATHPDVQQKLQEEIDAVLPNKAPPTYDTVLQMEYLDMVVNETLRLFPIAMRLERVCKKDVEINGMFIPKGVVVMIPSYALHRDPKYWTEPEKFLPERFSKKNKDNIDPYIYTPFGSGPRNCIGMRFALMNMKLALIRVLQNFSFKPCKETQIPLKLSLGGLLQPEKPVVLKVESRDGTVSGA
quantity kind: IC50 (nM)
Give just the number in nM; leave the unit off.

What the record says about CC[C@@H](Cn1ccc2ccccc21)NS(=O)(=O)c1c(N)cc(Cl)cc1Cl : IC50 is 570

---

Target: UniProtKB P04150
Sequence (P04150 whole entry): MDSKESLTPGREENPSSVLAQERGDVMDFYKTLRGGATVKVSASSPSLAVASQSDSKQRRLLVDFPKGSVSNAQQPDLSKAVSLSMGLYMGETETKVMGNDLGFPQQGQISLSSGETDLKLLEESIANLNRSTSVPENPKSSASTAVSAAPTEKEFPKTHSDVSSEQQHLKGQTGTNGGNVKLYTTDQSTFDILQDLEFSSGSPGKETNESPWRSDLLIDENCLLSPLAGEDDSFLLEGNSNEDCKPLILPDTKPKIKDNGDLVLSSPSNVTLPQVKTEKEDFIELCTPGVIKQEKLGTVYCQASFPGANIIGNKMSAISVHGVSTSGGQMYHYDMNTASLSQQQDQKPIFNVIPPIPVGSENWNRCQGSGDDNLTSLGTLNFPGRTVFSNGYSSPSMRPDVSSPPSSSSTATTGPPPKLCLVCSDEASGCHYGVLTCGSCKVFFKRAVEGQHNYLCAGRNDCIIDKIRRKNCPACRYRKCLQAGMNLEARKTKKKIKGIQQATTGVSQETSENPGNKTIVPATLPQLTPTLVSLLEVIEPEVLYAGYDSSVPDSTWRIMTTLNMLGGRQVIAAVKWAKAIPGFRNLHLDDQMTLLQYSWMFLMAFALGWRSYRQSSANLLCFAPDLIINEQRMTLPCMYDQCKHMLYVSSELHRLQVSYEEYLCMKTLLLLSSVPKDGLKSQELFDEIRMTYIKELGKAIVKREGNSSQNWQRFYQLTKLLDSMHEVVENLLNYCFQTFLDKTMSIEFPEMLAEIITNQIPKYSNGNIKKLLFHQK
Assay: Agonist activity at glucocorticoid receptor in HFF assessed as inhibition of IL-1-induced IL-6 production after 24 hrs
quantity kind: IC50 (nM)

I = Cc1cc(C)c(S(=O)(=O)NC(Cc2c[nH]c3c(C#N)cccc23)C(F)(F)F)c(C)c1 (stereo not given)
II = CC(Cc1c[nH]c2ccccc12)NS(=O)(=O)c1c(N)cc(Cl)cc1Cl (stereo not given)
III = CC[C@@H](Cn1cc(C#N)c2ccccc21)NS(=O)(=O)c1c(N)cc(Cl)cc1Cl
Ask | Order all 3 entries above by recorded IC50, highest first, lowest last. To answer, arrange all of the labels according to the requested order.
Reply | II, I, III
(II: 120 nM, I: 45 nM, III: 7 nM)

---

Biological target: Glucocorticoid receptor (Homo sapiens)
Assay: Displacement of TAMRA-labeled dexamethasone from glucocorticoid receptor (unknown origin) by fluorescence polarization competitive binding assay
quantity kind: IC50 (nM)

| compound | measurement unit | IC50 |
| --- | --- | --- |
| CC[C@@H](Cn1ccc2ccccc21)NS(=O)(=O)c1c(N)cc(Cl)cc1Cl | nM | 2 |
| Cc1cc(C)c(S(=O)(=O)NC(Cn2ccc3ccccc32)C(F)(F)F)c(C)c1 (stereo not given) | nM | 25 |
| Cc1cc(C)c(S(=O)(=O)N[C@@H](C)Cc2c[nH]c3ccccc23)c(C)c1 | nM | 40 |
| Cc1cc(C)c(S(=O)(=O)NC(Cc2c[nH]c3c(C)cccc23)C(F)(F)F)c(C)c1 (stereo not given) | nM | 20 |

a = Cc1cc(C)c(S(=O)(=O)NC(Cc2c[nH]c3cc(C)ccc23)C(F)(F)F)c(C)c1 (stereo not given)
b = Cc1cc(C)c(S(=O)(=O)NC(CSc2ccccc2)C(F)(F)F)c(C)c1 (stereo not given)
c = CC[C@@H](Cn1cc(C)c2ccccc21)NS(=O)(=O)c1c(N)cc(Cl)cc1Cl
d = CC(Cc1c[nH]c2ccccc12)NS(=O)(=O)c1c(N)cc(Cl)cc1Cl (stereo not given)
e = Cc1cc(C)c(S(=O)(=O)NC(CNc2ccccc2)C(F)(F)F)c(C)c1 (stereo not given)
Ask | Would you mind ranking these compounds by ascending IC50? To answer, arrange all of the labels according to the requested order.
Reply | c, d, b, a, e
